I'd appreciate it if you could supply IC50 values for the items below.
- Tested On: Axl (Homo sapiens (Human), UniProt P30530)
- Sequence (P30530 26-894): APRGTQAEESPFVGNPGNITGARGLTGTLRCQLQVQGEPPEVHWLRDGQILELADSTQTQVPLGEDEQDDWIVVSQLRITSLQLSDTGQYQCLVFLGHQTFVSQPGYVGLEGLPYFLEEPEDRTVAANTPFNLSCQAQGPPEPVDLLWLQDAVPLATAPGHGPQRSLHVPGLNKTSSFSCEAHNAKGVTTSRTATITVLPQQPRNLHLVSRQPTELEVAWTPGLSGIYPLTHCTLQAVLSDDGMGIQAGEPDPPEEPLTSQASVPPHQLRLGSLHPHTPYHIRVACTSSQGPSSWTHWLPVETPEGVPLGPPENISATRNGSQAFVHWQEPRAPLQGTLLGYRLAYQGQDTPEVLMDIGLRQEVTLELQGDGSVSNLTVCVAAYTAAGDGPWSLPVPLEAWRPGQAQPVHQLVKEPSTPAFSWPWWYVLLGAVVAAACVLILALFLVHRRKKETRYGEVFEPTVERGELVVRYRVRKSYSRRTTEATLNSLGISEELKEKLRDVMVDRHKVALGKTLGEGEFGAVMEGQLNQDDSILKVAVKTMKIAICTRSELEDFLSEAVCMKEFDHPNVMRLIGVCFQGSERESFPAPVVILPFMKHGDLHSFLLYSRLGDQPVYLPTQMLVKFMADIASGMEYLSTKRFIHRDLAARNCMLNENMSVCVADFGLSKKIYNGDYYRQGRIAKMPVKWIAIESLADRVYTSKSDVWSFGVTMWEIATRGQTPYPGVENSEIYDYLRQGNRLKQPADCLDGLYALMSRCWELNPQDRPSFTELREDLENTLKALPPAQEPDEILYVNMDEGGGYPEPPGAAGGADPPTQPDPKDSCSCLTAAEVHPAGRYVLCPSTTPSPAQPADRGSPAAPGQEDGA
- Measurement Protocol: Phospho-Akt in-cell Western assay (Axl-antibody cross-linking stimulation)
- Type: cell-based
- Run Parameters: inhibition of Axl activity, Hela cells, phospho-Akt readout; Table 5, formula (Ia3)

The recorded IC50 for entry CC(=O)c1ccc(Nc2nc(N)n(-c3ccccc3F)n2)cc1 equals > 20 µM

The recorded IC50 for entry CN(C)[C@H]1CCN(c2ccc(Nc3nc(N)n(-c4nccc5ccccc45)n3)cc2)C1 equals < 1 µM

The recorded IC50 for entry CN1CCC(c2ccc(Nc3nc(N)n(-c4nc5ccccc5c5ccccc45)n3)cc2)CC1 equals < 1 µM

The recorded IC50 for entry CNC(=O)c1ccc(Nc2nc(NC)n(-c3ccccc3)n2)cc1 equals > 20 µM

FYI, the data here is from patent US10166216B2.
